Target entity: HIPK4 (human)
Test details: KINOMEscan competition binding
Details: compound 1.0 µM
So I've got a bunch of compounds here, and I need their kinase still bound, per cent of control values.
Kindly format the answer as number then unit.

Prompt: API: value(readout= kinase still bound, per cent of control, system= HIPK4 (human), query= "CN(C)C/C=C/C(=O)Nc1cccc(C(=O)Nc2ccc(Nc3nccc(-c4c(-c5ccccc5)nn5ccccc45)n3)cc2)c1" )
Completion: 70%

Prompt: API: value(readout= kinase still bound, per cent of control, system= HIPK4 (human), query= "CN(C)C/C=C/C(=O)Nc1cccc(C(=O)Nc2ccc(Nc3nccc(/C(C#N)=C4\Nc5ccccc5S4)n3)cc2)c1" )
Completion: 6%

Prompt: API: value(readout= kinase still bound, per cent of control, system= HIPK4 (human), query= "Cc1cc(NC(=O)c2cccc(NC(=O)/C=C/CN(C)C)c2)ccc1Nc1nccc(-c2cccnc2)n1" )
Completion: 4%

Prompt: API: value(readout= kinase still bound, per cent of control, system= HIPK4 (human), query= "CN(C)C/C=C/C(=O)Nc1cccc(C(=O)Nc2ccc(Nc3nccc(-c4cccnc4)n3)cc2)c1" )
Completion: 18%

---

Experimental endpoint: IC50 (nM)
Respond with the bare value in nM.

Prompt: API: value(readout= IC50, system= CSF1R (human) (UniProt P07333), query= "Cc1cc(NC(=O)c2cccc(NC(=O)/C=C/CN(C)C)c2)ccc1Nc1nccc(-c2cccnc2)n1" )
Completion: 287

---

Target entity: EGFR (human) (UniProt P00533)
Sequence (P00533 whole entry, looked up): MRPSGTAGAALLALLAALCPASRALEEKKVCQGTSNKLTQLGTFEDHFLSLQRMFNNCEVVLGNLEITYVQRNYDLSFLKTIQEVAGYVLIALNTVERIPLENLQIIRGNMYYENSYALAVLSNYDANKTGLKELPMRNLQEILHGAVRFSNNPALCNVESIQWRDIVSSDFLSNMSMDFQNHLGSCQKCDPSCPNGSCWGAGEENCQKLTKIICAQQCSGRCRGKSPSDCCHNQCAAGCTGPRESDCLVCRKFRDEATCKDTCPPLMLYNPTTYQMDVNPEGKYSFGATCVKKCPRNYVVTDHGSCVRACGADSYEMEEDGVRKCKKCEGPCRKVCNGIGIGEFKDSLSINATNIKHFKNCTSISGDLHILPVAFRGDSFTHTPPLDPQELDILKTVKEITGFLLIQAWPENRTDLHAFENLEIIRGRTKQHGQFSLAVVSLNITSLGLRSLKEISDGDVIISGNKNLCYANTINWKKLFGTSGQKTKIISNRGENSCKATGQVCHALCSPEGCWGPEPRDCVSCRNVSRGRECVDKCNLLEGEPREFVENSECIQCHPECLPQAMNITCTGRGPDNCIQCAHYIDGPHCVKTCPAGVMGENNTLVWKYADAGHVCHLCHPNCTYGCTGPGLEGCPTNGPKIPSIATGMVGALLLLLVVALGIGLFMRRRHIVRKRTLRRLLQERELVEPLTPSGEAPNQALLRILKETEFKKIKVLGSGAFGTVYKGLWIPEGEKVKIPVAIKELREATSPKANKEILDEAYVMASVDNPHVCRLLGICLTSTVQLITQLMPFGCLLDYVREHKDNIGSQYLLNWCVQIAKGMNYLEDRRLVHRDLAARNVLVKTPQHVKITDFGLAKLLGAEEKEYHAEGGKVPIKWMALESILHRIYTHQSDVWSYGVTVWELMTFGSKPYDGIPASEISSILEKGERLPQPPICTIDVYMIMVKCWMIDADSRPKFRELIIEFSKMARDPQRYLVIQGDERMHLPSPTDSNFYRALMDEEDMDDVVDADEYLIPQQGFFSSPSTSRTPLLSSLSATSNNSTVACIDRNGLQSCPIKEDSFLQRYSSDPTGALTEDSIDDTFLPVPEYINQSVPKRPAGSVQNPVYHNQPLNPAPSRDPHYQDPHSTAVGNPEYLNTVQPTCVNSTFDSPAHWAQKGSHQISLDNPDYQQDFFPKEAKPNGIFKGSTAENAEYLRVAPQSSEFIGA
Test details: KINOMEscan competition binding
Details: compound 1.0 µM
So I've got a bunch of compounds here, and I need their kinase still bound, per cent of control values.
Respond with the bare value in %.

Prompt: # get_value(readout='kinase still bound, per cent of control', item= "CN(C)C/C=C/C(=O)Nc1cccc(C(=O)Nc2ccc(Nc3nccc(-c4cccnc4)n3)cc2)c1" )
Completion: 95

Prompt: # get_value(readout='kinase still bound, per cent of control', item= "CN(C)C/C=C/C(=O)Nc1cccc(C(=O)Nc2ccc(Nc3nccc(/C(C#N)=C4\Nc5ccccc5S4)n3)cc2)c1" )
Completion: 81

Prompt: # get_value(readout='kinase still bound, per cent of control', item= "Cc1cc(NC(=O)c2cccc(NC(=O)/C=C/CN(C)C)c2)ccc1Nc1nccc(-c2cccnc2)n1" )
Completion: 100

Prompt: # get_value(readout='kinase still bound, per cent of control', item= "CN(C)C/C=C/C(=O)Nc1cccc(C(=O)Nc2ccc(Nc3nccc(-c4c(-c5ccccc5)nn5ccccc45)n3)cc2)c1" )
Completion: 1.8

---

So I've got a bunch of compounds here, and I need their kinase still bound, per cent of control values.
Target entity: FGFR3 (human)
Test details: KINOMEscan competition binding
Details: compound 1.0 µM
Respond with the bare value in %.

Prompt: API: value(readout= kinase still bound, per cent of control, system= FGFR3 (human), query= "CN(C)C/C=C/C(=O)Nc1cccc(C(=O)Nc2ccc(Nc3nccc(/C(C#N)=C4\Nc5ccccc5S4)n3)cc2)c1" )
Completion: 100

Prompt: API: value(readout= kinase still bound, per cent of control, system= FGFR3 (human), query= "CN(C)C/C=C/C(=O)Nc1cccc(C(=O)Nc2ccc(Nc3nccc(-c4cccnc4)n3)cc2)c1" )
Completion: 78

Prompt: API: value(readout= kinase still bound, per cent of control, system= FGFR3 (human), query= "Cc1cc(NC(=O)c2cccc(NC(=O)/C=C/CN(C)C)c2)ccc1Nc1nccc(-c2cccnc2)n1" )
Completion: 100

Prompt: API: value(readout= kinase still bound, per cent of control, system= FGFR3 (human), query= "CN(C)C/C=C/C(=O)Nc1cccc(C(=O)Nc2ccc(Nc3nccc(-c4c(-c5ccccc5)nn5ccccc45)n3)cc2)c1" )
Completion: 100

---

So I've got a bunch of compounds here, and I need their kinase still bound, per cent of control values.
Target entity: UniProtKB P0C264
Sequence (P0C264 whole entry, looked up): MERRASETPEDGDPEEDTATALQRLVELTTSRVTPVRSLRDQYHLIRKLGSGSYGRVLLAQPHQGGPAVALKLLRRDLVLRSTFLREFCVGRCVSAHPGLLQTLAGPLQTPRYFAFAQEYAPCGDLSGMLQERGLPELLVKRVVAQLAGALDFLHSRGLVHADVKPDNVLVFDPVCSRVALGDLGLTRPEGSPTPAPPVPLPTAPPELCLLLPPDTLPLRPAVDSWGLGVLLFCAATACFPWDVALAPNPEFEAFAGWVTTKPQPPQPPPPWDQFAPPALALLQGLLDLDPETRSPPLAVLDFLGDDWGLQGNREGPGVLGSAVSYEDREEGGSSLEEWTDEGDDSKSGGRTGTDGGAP
Test details: KINOMEscan competition binding
Details: compound 1.0 µM
Respond with the bare value in %.

Prompt: # get_value(readout='kinase still bound, per cent of control', item= "CN(C)C/C=C/C(=O)Nc1cccc(C(=O)Nc2ccc(Nc3nccc(/C(C#N)=C4\Nc5ccccc5S4)n3)cc2)c1" )
Completion: 100

Prompt: # get_value(readout='kinase still bound, per cent of control', item= "CN(C)C/C=C/C(=O)Nc1cccc(C(=O)Nc2ccc(Nc3nccc(-c4cccnc4)n3)cc2)c1" )
Completion: 100

Prompt: # get_value(readout='kinase still bound, per cent of control', item= "Cc1cc(NC(=O)c2cccc(NC(=O)/C=C/CN(C)C)c2)ccc1Nc1nccc(-c2cccnc2)n1" )
Completion: 95

Prompt: # get_value(readout='kinase still bound, per cent of control', item= "CN(C)C/C=C/C(=O)Nc1cccc(C(=O)Nc2ccc(Nc3nccc(-c4c(-c5ccccc5)nn5ccccc45)n3)cc2)c1" )
Completion: 100

---

So I've got a bunch of compounds here, and I need their kinase still bound, per cent of control values.
Target entity: MAP2K1 (human) (UniProt Q02750)
Sequence (Q02750 whole entry, looked up): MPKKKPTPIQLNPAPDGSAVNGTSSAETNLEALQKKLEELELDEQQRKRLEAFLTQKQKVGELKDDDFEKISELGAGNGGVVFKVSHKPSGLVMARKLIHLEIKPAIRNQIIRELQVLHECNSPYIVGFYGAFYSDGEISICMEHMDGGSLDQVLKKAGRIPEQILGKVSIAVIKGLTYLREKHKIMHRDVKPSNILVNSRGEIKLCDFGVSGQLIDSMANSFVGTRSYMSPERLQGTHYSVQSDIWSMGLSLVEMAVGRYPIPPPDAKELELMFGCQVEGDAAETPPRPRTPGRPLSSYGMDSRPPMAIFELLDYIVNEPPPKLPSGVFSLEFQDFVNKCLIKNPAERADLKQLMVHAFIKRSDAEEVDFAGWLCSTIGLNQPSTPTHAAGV
Test details: KINOMEscan competition binding
Details: compound 1.0 µM
Kindly format the answer as number then unit.

Prompt: # get_value(readout='kinase still bound, per cent of control', item= "CN(C)C/C=C/C(=O)Nc1cccc(C(=O)Nc2ccc(Nc3nccc(-c4c(-c5ccccc5)nn5ccccc45)n3)cc2)c1" )
Completion: 100%

Prompt: # get_value(readout='kinase still bound, per cent of control', item= "CN(C)C/C=C/C(=O)Nc1cccc(C(=O)Nc2ccc(Nc3nccc(/C(C#N)=C4\Nc5ccccc5S4)n3)cc2)c1" )
Completion: 100%

Prompt: # get_value(readout='kinase still bound, per cent of control', item= "CN(C)C/C=C/C(=O)Nc1cccc(C(=O)Nc2ccc(Nc3nccc(-c4cccnc4)n3)cc2)c1" )
Completion: 46%

Prompt: # get_value(readout='kinase still bound, per cent of control', item= "Cc1cc(NC(=O)c2cccc(NC(=O)/C=C/CN(C)C)c2)ccc1Nc1nccc(-c2cccnc2)n1" )
Completion: 94%

---

Target entity: CDK19 (human)
Test details: KINOMEscan competition binding
Details: compound 1.0 µM
Experimental endpoint: kinase still bound, per cent of control (%)
Respond with the bare value in %.

Prompt: API: value(readout= kinase still bound, per cent of control, system= CDK19 (human), query= "CN(C)C/C=C/C(=O)Nc1cccc(C(=O)Nc2ccc(Nc3nccc(-c4c(-c5ccccc5)nn5ccccc45)n3)cc2)c1" )
Completion: 100

Prompt: API: value(readout= kinase still bound, per cent of control, system= CDK19 (human), query= "CN(C)C/C=C/C(=O)Nc1cccc(C(=O)Nc2ccc(Nc3nccc(-c4cccnc4)n3)cc2)c1" )
Completion: 58

Prompt: API: value(readout= kinase still bound, per cent of control, system= CDK19 (human), query= "CN(C)C/C=C/C(=O)Nc1cccc(C(=O)Nc2ccc(Nc3nccc(/C(C#N)=C4\Nc5ccccc5S4)n3)cc2)c1" )
Completion: 93

Prompt: API: value(readout= kinase still bound, per cent of control, system= CDK19 (human), query= "Cc1cc(NC(=O)c2cccc(NC(=O)/C=C/CN(C)C)c2)ccc1Nc1nccc(-c2cccnc2)n1" )
Completion: 62

---

Target entity: UniProtKB Q9NWZ3
Sequence (Q9NWZ3 whole entry, looked up): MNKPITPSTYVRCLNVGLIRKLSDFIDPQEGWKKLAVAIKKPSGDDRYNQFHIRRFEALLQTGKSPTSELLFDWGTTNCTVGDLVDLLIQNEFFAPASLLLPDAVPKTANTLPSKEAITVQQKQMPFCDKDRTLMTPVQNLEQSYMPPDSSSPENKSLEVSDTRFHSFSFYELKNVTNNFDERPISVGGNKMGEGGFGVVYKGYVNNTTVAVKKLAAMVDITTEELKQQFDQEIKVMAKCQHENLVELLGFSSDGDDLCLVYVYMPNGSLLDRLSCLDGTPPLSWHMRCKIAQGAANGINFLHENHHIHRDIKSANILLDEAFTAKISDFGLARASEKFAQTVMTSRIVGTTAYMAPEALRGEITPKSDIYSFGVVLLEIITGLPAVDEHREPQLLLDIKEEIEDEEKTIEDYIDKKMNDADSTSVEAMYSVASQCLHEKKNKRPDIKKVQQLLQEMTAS
Test details: KINOMEscan competition binding
Details: compound 1.0 µM
Experimental endpoint: kinase still bound, per cent of control (%)
Respond with the bare value in %.

Prompt: # get_value(readout='kinase still bound, per cent of control', item= "CN(C)C/C=C/C(=O)Nc1cccc(C(=O)Nc2ccc(Nc3nccc(/C(C#N)=C4\Nc5ccccc5S4)n3)cc2)c1" )
Completion: 71

Prompt: # get_value(readout='kinase still bound, per cent of control', item= "Cc1cc(NC(=O)c2cccc(NC(=O)/C=C/CN(C)C)c2)ccc1Nc1nccc(-c2cccnc2)n1" )
Completion: 93

Prompt: # get_value(readout='kinase still bound, per cent of control', item= "CN(C)C/C=C/C(=O)Nc1cccc(C(=O)Nc2ccc(Nc3nccc(-c4c(-c5ccccc5)nn5ccccc45)n3)cc2)c1" )
Completion: 84

Prompt: # get_value(readout='kinase still bound, per cent of control', item= "CN(C)C/C=C/C(=O)Nc1cccc(C(=O)Nc2ccc(Nc3nccc(-c4cccnc4)n3)cc2)c1" )
Completion: 100

---

So I've got a bunch of compounds here, and I need their kinase still bound, per cent of control values.
Target entity: RPS6KA3 KD1 (human)
Test details: KINOMEscan competition binding
Details: compound 1.0 µM
Respond with the bare value in %.

Prompt: # get_value(readout='kinase still bound, per cent of control', item= "CN(C)C/C=C/C(=O)Nc1cccc(C(=O)Nc2ccc(Nc3nccc(/C(C#N)=C4\Nc5ccccc5S4)n3)cc2)c1" )
Completion: 87

Prompt: # get_value(readout='kinase still bound, per cent of control', item= "Cc1cc(NC(=O)c2cccc(NC(=O)/C=C/CN(C)C)c2)ccc1Nc1nccc(-c2cccnc2)n1" )
Completion: 100

Prompt: # get_value(readout='kinase still bound, per cent of control', item= "CN(C)C/C=C/C(=O)Nc1cccc(C(=O)Nc2ccc(Nc3nccc(-c4cccnc4)n3)cc2)c1" )
Completion: 100

Prompt: # get_value(readout='kinase still bound, per cent of control', item= "CN(C)C/C=C/C(=O)Nc1cccc(C(=O)Nc2ccc(Nc3nccc(-c4c(-c5ccccc5)nn5ccccc45)n3)cc2)c1" )
Completion: 50
